Data origin: the supplement of paper PMC10567573

Listed here are variants together with their documented protein stability index.
B1: ISL2 (parent)
chain: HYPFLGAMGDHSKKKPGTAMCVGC

variants of: B1; assay: protein stability index of a GFP-peptide fusion (GPS, HEK-293T) (PSI 1-6); higher = more stable; details: c terminus: a fixed tail appended;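 also: lentivirally expressed fusions sorted by FACS into six bins by GFP to DsRed ratio, PSI derived from sequencing read proportions per bin multiplied by bin number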

[
  {
    "monomer-sequence": "HYPILGAMGDHSKKKPGTAMCVGC [F4I]",
    "value-observed": 3.03
  },
  {
    "monomer-sequence": "HYPWLGAMGDHSKKKPGTAMCVGC [F4W]",
    "value-observed": 3.02
  },
  {
    "monomer-sequence": "HYPFLGAMGDHSKHKPGTAMCVGC [K14H]",
    "value-observed": 3.07
  }
]

// lookup protein stability index for HYPFLGTMGDHSKKKPGTAMCVGC [A7T]
2.93

// lookup protein stability index for HYPFLGAMGDHSKKKPGTAMCVTC [G23T]
2.96

// lookup protein stability index for HYPFLGAMGDHSEKKPGTAMCVGC [K13E]
3.07

// lookup protein stability index for HYPFLGANGDHSKKKPGTAMCVGC [M8N]
2.94
